The origin of these recorded values is ChEMBL document CHEMBL4689842.

# System: Fibroblast
# assay.method.text: Multiplex assay against human fibroblast
# Format: toxicity, cell-based
# condition.set: 12 h, 1 µM, compound concentration 1 uM, replicate 1
Here the recorded Population Apoptotic (%) is given for each entry.
In your response, the unit should come after the numeric value.

Consider the reported Population Apoptotic (%) for these compounds:
>>> observed("COc1ccc(-c2ccc3c(N4CCOCC4)nc(N4C[C@@H](C)O[C@@H](C)C4)nc3n2)cc1CO")
"72%"
>>> observed("CN1CCN(C(=O)C(C)(C)c2ccc(C(=O)Nc3cn4cc(-c5cc(C(C)(C)C)cc(C(C)(C)C)c5)ccc4n3)cc2)CC1")
"84%"
>>> observed("CCCn1c(=O)c2[nH]c(-c3cnn(Cc4cccc(C(F)(F)F)c4)c3)nc2n(CC)c1=O")
"51%"
>>> observed("Cc1ccc(C(=O)Nc2cccc(C(F)(F)F)c2)cc1Nc1nc(-c2cccnc2)nc2c1cnn2C")
"61%"

The measured Population Apoptotic (%) associated with CN1CCC(=C2c3ccccc3CC(=O)c3sccc32)CC1.O=C(O)/C=C/C(=O)O [KETOTIFEN FUMARATE] reads 61%

The measured Population Apoptotic (%) associated with "CCc1cccc(CC)c1NC(=O)c1nn(C)c2c1CCc1cnc(Nc3ccc(N4CCN(C)CC4)cc3OC)nc1-2" reads 45%

The measured Population Apoptotic (%) associated with "COc1cc(N2CCN(C)CC2)ccc1Nc1ncc2c(n1)N(C)c1ccccc1C(=O)N2C" reads 58%

The measured Population Apoptotic (%) associated with CN1C2CCC1CC(OC(c1ccc(F)cc1)c1ccc(F)cc1)C2.Cl (stereo unspecified) reads 53%

The measured Population Apoptotic (%) associated with "CCCS(=O)(=O)Nc1ccc(F)c(C(=O)c2c[nH]c3ncc(Cl)cc23)c1F" reads 55%

The measured Population Apoptotic (%) associated with "CCc1cccc(CC)c1NC(=O)c1nn(C)c2c1CCc1cnc(Nc3ccc(C(=O)NC4CCN(C)CC4)cc3OC(F)(F)F)nc1-2" reads 62%

The measured Population Apoptotic (%) associated with "O=C1NC(=O)C(c2cnc3ccccn23)=C1c1cn2c3c(cc(F)cc13)CN(C(=O)N1CCCCC1)CC2" reads 60%

The measured Population Apoptotic (%) associated with "COC(=N)c1nc2ccc3ncnc(Nc4ccc(OC)cc4F)c3c2s1" reads 55%

The measured Population Apoptotic (%) associated with "O=C(Cc1ccc(-c2ccc(OCCN3CCOCC3)cc2)cn1)NCc1ccccc1" reads 71%

The measured Population Apoptotic (%) associated with "CCN1CCN(c2ccc(Nc3cc(N(C)C(=O)Nc4c(Cl)c(OC)cc(OC)c4Cl)ncn3)cc2)CC1" reads 55%

The measured Population Apoptotic (%) associated with "CN[C@@H]1C[C@H]2O[C@@](C)([C@@H]1OC)n1c3ccccc3c3c4c(c5c6ccccc6n2c5c31)C(=O)NC4" reads 75%

The measured Population Apoptotic (%) associated with "Cc1cc(C)c(S(=O)(=O)N(Cc2ccc(-c3cccc(S(C)(=O)=O)c3)cc2)Cc2ccc(C(F)(F)F)o2)c(C)c1" reads 68%

---

# Test system: U2OS
# assay.method.text: Multiplex assay against U2OS
# Format: toxicity, cell-based
# condition.set: human, 24 h, 10 µM, compound concentration 10 uM, replicate 2
Here the recorded Population Healthy Nuclei (%) is given for each entry.

>>> observed("O=C1N/C(=N/c2ccccc2F)S/C1=C\\c1ccc(C(=O)O)cc1")
"88%"
>>> observed("CN(C)C(=O)C(CCN1CCC(O)(c2ccc(Cl)cc2)CC1)(c1ccccc1)c1ccccc1.Cl [LOPERAMIDE HYDROCHLORIDE]")
"26%"
>>> observed("COc1ccc(S(=O)(=O)N(CCO)c2ccccc2CN(C)C/C=C/c2ccc(Cl)cc2)cc1.O=P(O)(O)O")
"85%"

Now for a further compound.
The measured Population Healthy Nuclei (%) associated with "CCc1cccc(CC)c1NC(=O)c1nn(C)c2c1CCc1cnc(Nc3ccc(N4CCN(C)CC4)cc3OC)nc1-2" reads 69%

---

# Tested on: Fibroblast
# assay.method.text: Multiplex assay against human fibroblast
# Format: toxicity, cell-based
# condition.set: 12 h, 10 µM, compound concentration 10 uM, replicate 2
property.measured: Population Apoptotic (%)

Consider the reported Population Apoptotic (%) for these compounds:
>>> observed("CN1CCC(=C2c3ccccc3CC(=O)c3sccc32)CC1.O=C(O)/C=C/C(=O)O [KETOTIFEN FUMARATE]")
"33%"
>>> observed("CNc1cc(Oc2cc(C(=O)Nc3cc(N4CCN(C)CC4)cc(C(F)(F)F)c3)ccc2C)ncn1")
"73%"
>>> observed("O=C(Nc1ccc(Cl)cc1)Nc1cccc(-c2cccc(N3CCCC3)n2)c1")
"72%"
>>> observed("COc1cc2ncnc(Nc3ccc(F)c(Cl)c3)c2cc1NC(=O)/C=C/CN1CCCCC1 [DACOMITINIB ANHYDROUS]")
"28%"
>>> observed("COC(=N)c1nc2ccc3ncnc(Nc4ccc(OC)cc4F)c3c2s1")
"100%"
>>> observed("COc1ccc(S(=O)(=O)N(CCO)c2ccccc2CN(C)C/C=C/c2ccc(Cl)cc2)cc1.O=P(O)(O)O")
"50%"
>>> observed("Cn1nc(C(F)(F)F)cc1-c1cnc(N2CCc3cc(S(=O)(=O)Nc4c(F)cc(Cl)cc4F)cc(N4CCCC4=O)c32)nc1 [TP-020]")
"33%"
>>> observed("Cc1cc(C)c(S(=O)(=O)N(Cc2ccc(-c3cccc(S(C)(=O)=O)c3)cc2)Cc2ccc(C(F)(F)F)o2)c(C)c1")
"0%"
>>> observed("CCOC(=O)c1c(C)[nH]c2ccc3c(c12)CN1CCc2cc(OC)ccc2C1O3 (stereo not drawn)")
"80%"
>>> observed("O=C1N/C(=N/c2ccccc2F)S/C1=C\\c1ccc(C(=O)O)cc1")
"44%"

The measured Population Apoptotic (%) associated with CCCS(=O)(=O)Nc1ccc(F)c(C(=O)c2c[nH]c3ncc(Cl)cc23)c1F [PLX-4720] reads 60%

The measured Population Apoptotic (%) associated with COCC(=O)NC/C=C/c1ccc2ncnc(Nc3ccc(Oc4ccc(C)nc4)c(C)c3)c2c1 [CP-724714] reads 80%

The measured Population Apoptotic (%) associated with C=CCn1c(=O)c2cnc(Nc3ccc(N4CCN(C)CC4)cc3)nc2n1-c1cccc(C(C)(C)O)n1 [ADAVOSERTIB] reads 75%

The measured Population Apoptotic (%) associated with "CNC(=O)c1ccc(Nc2nc(OC3CCCC3)c3c(-c4ccc5nc(C)oc5c4)c[nH]c3n2)c(OC)c1" reads 33%

The measured Population Apoptotic (%) associated with CCn1cc(-c2ccnc3[nH]c(-c4cccc(CN(C)C)c4)cc23)c(-c2ccc(NC(=O)N(C)C)cc2)n1 [GSK-1070916] reads 33%

The measured Population Apoptotic (%) associated with CCCn1c(=O)c2[nH]c(-c3cnn(Cc4cccc(C(F)(F)F)c4)c3)nc2n(CC)c1=O [GS 6201] reads 50%

The measured Population Apoptotic (%) associated with "CCc1cccc(CC)c1NC(=O)c1nn(C)c2c1CCc1cnc(Nc3ccc(C(=O)NC4CCN(C)CC4)cc3OC(F)(F)F)nc1-2" reads 46%

The measured Population Apoptotic (%) associated with CCOc1cc2ncc(C#N)c(Nc3ccc(OCc4ccccn4)c(Cl)c3)c2cc1NC(=O)/C=C/CN(C)C [NERATINIB] reads 12%

The measured Population Apoptotic (%) associated with "CCCS(=O)(=O)c1nc(NC2CC2)cc(-c2ccc3c(ccn3C3CC(C)(C)NC(C)(C)C3)c2)n1" reads 92%

The measured Population Apoptotic (%) associated with "O=C(Nc1ccc(-c2ccnc(Nc3ccc(N4CCOCC4)cc3)n2)cc1)[C@@H]1CCCN1" reads 77%

The measured Population Apoptotic (%) associated with COc1ccc(-c2ccc3c(N4CCOCC4)nc(N4C[C@@H](C)O[C@@H](C)C4)nc3n2)cc1CO [Ku-0063794] reads 0%

The measured Population Apoptotic (%) associated with COc1cccc2cc(-c3nc([C@H]4CC[C@H](C(=O)O)CC4)n4ncnc(N)c34)[nH]c12 [OSI-027] reads 20%

The measured Population Apoptotic (%) associated with C=C1/C(=C\C=C2/CCC[C@]3(C)[C@@H]([C@H](C)/C=C/[C@H](C)C(C)C)CC[C@@H]23)C[C@@H](O)C[C@@H]1O [DOXERCALCIFEROL] reads 0%

The measured Population Apoptotic (%) associated with "Cc1ccc2nc(NCCN)c3ncc(C)n3c2c1.O=C(O)C(F)(F)F.O=C(O)C(F)(F)F" reads 66%

The measured Population Apoptotic (%) associated with "CCOc1cc(C(=O)N2CCC(N3CCN(C)CC3)CC2)ccc1Nc1ncc2c(n1)N(C1CCCC1)c1ccccc1C(=O)N2C" reads 92%

The measured Population Apoptotic (%) associated with O=C1NC(=O)C(c2cnc3ccccn23)=C1c1cn2c3c(cc(F)cc13)CN(C(=O)N1CCCCC1)CC2 [LY-2090314] reads 100%

The measured Population Apoptotic (%) associated with "S=C(NCCCc1c[nH]cn1)NCCCN(Cc1ccc(Cl)c(Cl)c1)c1ccc(Br)cn1" reads 93%

The measured Population Apoptotic (%) associated with "CCN1CCN(Cc2ccc(Nc3ncc(F)c(-c4cc(F)c5nc(C)n(C(C)C)c5c4)n3)nc2)CC1.CS(=O)(=O)O" reads 83%
